# target.or.system: EeAChE (AChE from Electrophorus electricus) (Electrophorus electricus, UniProt O42275)
# Sequence (O42275 24-633): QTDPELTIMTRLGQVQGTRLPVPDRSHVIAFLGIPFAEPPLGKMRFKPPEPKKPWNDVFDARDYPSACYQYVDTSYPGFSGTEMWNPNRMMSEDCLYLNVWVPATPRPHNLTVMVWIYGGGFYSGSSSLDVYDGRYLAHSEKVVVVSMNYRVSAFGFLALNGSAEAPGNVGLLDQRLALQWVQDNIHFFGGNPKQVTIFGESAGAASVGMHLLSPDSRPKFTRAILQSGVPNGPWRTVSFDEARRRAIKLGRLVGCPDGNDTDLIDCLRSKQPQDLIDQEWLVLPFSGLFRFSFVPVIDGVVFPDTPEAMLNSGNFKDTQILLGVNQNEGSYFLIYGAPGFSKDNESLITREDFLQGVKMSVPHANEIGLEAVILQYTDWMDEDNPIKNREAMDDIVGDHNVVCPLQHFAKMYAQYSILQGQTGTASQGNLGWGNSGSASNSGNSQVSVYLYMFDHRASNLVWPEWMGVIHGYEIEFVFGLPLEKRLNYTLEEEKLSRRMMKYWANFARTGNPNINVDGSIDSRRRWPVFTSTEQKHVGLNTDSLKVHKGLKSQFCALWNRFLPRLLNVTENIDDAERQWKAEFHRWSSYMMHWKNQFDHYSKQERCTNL
# assay.info: biochemical
# setup.conditions: based on IC50 values against EeAChE and EfBChE
experimental.endpoint: selectivity index (SI)

compound	target.or.system	experimental.endpoint	recorded.value
COc1cc2c(cc1OCCCCCCOc1cccc(C(=O)/C=C/c3ccc(N(C)C)cc3)c1)C(=O)C(CC1CCN(Cc3ccccc3)CC1)C2 (stereo not drawn) [15c]	EeAChE (AChE from Electrophorus electricus) (Electrophorus electricus, UniProt O42275)	selectivity index (SI)	≈3.3
COc1cc2c(cc1OCCCCCCCCCCOc1cccc(C(=O)/C=C/c3ccc(N(C)C)cc3)c1)C(=O)C(CC1CCN(Cc3ccccc3)CC1)C2 (stereo not drawn) [15e]	EeAChE (AChE from Electrophorus electricus) (Electrophorus electricus, UniProt O42275)	selectivity index (SI)	≈5.5
COc1cc2c(cc1OCCCCCCCCOc1cccc(C(=O)/C=C/c3ccc(N(C)C)cc3)c1)C(=O)C(CC1CCN(Cc3ccccc3)CC1)C2 (stereo not drawn) [15d]	EeAChE (AChE from Electrophorus electricus) (Electrophorus electricus, UniProt O42275)	selectivity index (SI)	≈1.6

Data provenance is paper PMC6983213.
